Attribution: ChEMBL document CHEMBL4513216

test system: Plasmodium falciparum; assay: Screen against P. falciparum Asexual Blood Stage (ABS), at 5uM; assay type: functional, Dd2; conditions: tested at 5 uM
About 2,100 (3.2%) of roughly 65,000 compounds showed an effect of 50% or more. The median lay at about -52%. This excerpt belongs to a sample that is enriched for strong results.
measurement kind: INHIBITION
Just so you know, I need the unit written after the number.

Cc1noc(CN(C)CC2CCN(CCO)CC2)n1: -64%

Please report the measured INHIBITION for CN(CC1CCN(CCO)CC1)CC(O)c1ccc(F)cc1 (configuration not stated) 69.1%

Let me know recorded INHIBITION for CC(O)CN1CCN(Cc2csc(-c3ncccn3)n2)CC1 (configuration not stated) , thanks. -107%

Fill in reported INHIBITION for this entry: CCc1cc(=O)n(CC(=O)N2CCC(C)CC2)c(-c2ccccc2)n1 -53.5%

Supply measured INHIBITION of Cc1cnn(CC2CCN(CC(O)c3ccc(F)cc3)CC2)c1 (configuration not stated) in your reply. 29.3%

Annotate the molecule CCC(c1ccc(F)cc1F)N1CCN(CCO)CC1 (configuration not stated) with its measured INHIBITION. 34.1%

// Input: CN(C)C(=O)C1CCCN(C(=O)c2ccccc2-n2cc(CN)cn2)C1 (configuration not stated) . Output its INHIBITION only. 25.8%

Recall and state the measured INHIBITION for Cc1ncnc2c1CCN(C(=O)N(C)C)CC2 . -100%

Look up and report measured INHIBITION for this entry: CCc1nccn1C1CCCN(C(=O)c2cnn3cccnc23)C1 (configuration not stated) -64%

Identify the reported INHIBITION for the following entry. NC(=O)c1ccc(C(=O)N2CCCCC2Cn2cccn2)s1 (configuration not stated) -33.2%

Consider the molecule CN(CC1CCN(CCO)CC1)CC(O)c1ccc(F)cc1F (configuration not stated) and give its recorded INHIBITION. 56.7%

Return value of INHIBITION for input NC1CCCCN(Cc2cc(C3CCCCC3)no2)C1 (configuration not stated) , no commentary. 62%
